- Procedure Text: Multiple oral dose pharmacokinetics in patients with SCI (Example 3)
- Experimental Context: both sexes, human, in vivo
Quantity Name: Tmax

Q: Sample Nc1ccncc1 [fampridine, 4-aminopyridine] — what was its Tmax?
Ans: 2.2 to 3 h
